assay: NCI Yeast Anticancer Drug Screen. Data for the mlh1 rad18 strain (AID 175); conditions: S. cerevisiae mlh1 rad18 strain growth inhibition; at 50.0 µM; hits give high values
This is part of a sample that, as a whole, favours compounds with a hit. Of some 79,000 tested, about 15% had one in any assay. Activity calls are given as the source filed them. Rule as the data show it: active = growth inhibition above about 70%; inactive = the rest.
Entries and their growth inhibition values follow.

# get_value(readout='growth inhibition', item= CCN(CC)CCOC(=O)C1C(c2ccccc2)C1(c1ccccc1)c1ccccc1 (stereo not drawn) )
92.8% (active)

# get_value(readout='growth inhibition', item= CC(C)OC(=O)c1ccc(NCC2=CC(=O)C=CC2=O)cc1Cl )
91.7% (active)

# get_value(readout='growth inhibition', item= Oc1cc2ccccc2c2ccccc12 )
98.9% (active)

====

assay: NCI Yeast Anticancer Drug Screen. Data for the bub3 strain (AID 167); details: S. cerevisiae bub3 mutant strain, at 50.0 µM (retest, dose inferred, filed as 5.0)
Compounds without any hit were thinned out: in the full panel of roughly 79,000, 15% have a hit. Active and inactive are the calls of the source. Rule as the data show it: active = growth inhibition above about 70%; inactive = the rest.
Respond with a class label; see active, inactive

Before answering, review these 2 worked examples.
CC1(C(Cl)(Cl)Cl)C=CC(O)(C#CC2(O)C=CC(C)(C(Cl)(Cl)Cl)C=C2)C=C1 (stereo not given) :: active
C[C@@]12C(=O)OC(=O)[C@]1(C)[C@H]1CC[C@@H]2O1 :: active

Assay result, entry O=C1C=CC(=O)N1C1c2ccccc2-c2ccccc21 — outcome?
active

Assay result, entry C[n+]1c(-c2ccc(/C=C/C=N\NC(=O)c3ccc(C(=O)N/N=C\C=C\c4ccc(-c5cn6ccccc6[n+]5C)cc4)cc3)cc2)cn2ccccc21 — outcome?
active

Assay result, entry OC[P+](CO)(CO)C12CC3CC(CC(C3)C1)C2 — outcome?
inactive

Assay result, entry CCOC(=O)C(CCSC)C(=O)OCC — outcome?
inactive

Assay result, entry CS(=O)(=O)OCCCN(CCCOS(C)(=O)=O)c1ccc(C=Nc2ccc(-c3csc(COc4ccc(Br)cc4Br)n3)cc2)cc1 — outcome?
active

====

assay: NCI Yeast Anticancer Drug Screen. Data for the mlh1 rad18 strain (AID 175); settings: S. cerevisiae mlh1 rad18 strain growth inhibition; at 50.0 µM (retest, dose inferred, filed as 5.0); hits give high values
The panel holds about 79,000 compounds, 15% with a hit somewhere; the sample as a whole holds those more often.
Entries and their growth inhibition values follow.
API: value field is a number in %; no unit string.

Record excerpt, results attached:
O=C(CCN1CCCCC1)/C(=C\c1ccc(Cl)cc1)c1ccccc1 :: 99
NNc1cc([N+](=O)[O-])ccc1Cl :: 95

# get_value(readout='growth inhibition', item= O=CNc1ccc2c(c1)Cc1cc(NC=O)ccc1-2 )
79

# get_value(readout='growth inhibition', item= CCCCCCC(O)C(CO)CCCCC (stereo unspecified) )
92

# get_value(readout='growth inhibition', item= COc1ccc(OC)c2c(C(=O)O)c(C(C)c3ccccc3)ccc12 (stereo unspecified) )
75

# get_value(readout='growth inhibition', item= Nc1c(O)c(Cl)cc(Cl)c1Cl )
93

====

assay: NCI Yeast Anticancer Drug Screen. Data for the rad50 strain (AID 155);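 also: 0% = growth of vehicle-only cultures of the same strain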; conditions: S. cerevisiae rad50 strain growth inhibition; at 50.0 µM (retest, dose inferred, filed as 5.0)
Compounds without any hit were thinned out: in the full panel of roughly 79,000, 15% have a hit. Active and inactive are the calls of the source. Cut-off read from the data, not from the text of the source: active = growth inhibition above about 70%; inactive = the rest.
Respond with a class label; see yes for active, no for inactive

CCCCSc1n[nH]c(=O)nc1SC :: yes
COCCCNC(=O)SC :: no
O=C(N=c1sc2ccccc2s1)N=c1sc2ccccc2s1 :: no
C/C(=C/c1ccccc1)C(=O)C1C(c2ccccc2)CC(O)C(C)C1c1ccccc1 (centres undefined) :: yes
O=C(O)CC1(C(=O)O)CCCCC1 :: no
c1ccc2c(c1)[nH]c1cc3ccncc3cc12 :: yes
N#C/C(=C\c1c(Cl)cccc1Cl)c1nc2ccccc2[nH]1 :: yes
Clc1cccc(N2CCN(c3c4c(nc5ccccc35)CCCCC4)CC2)c1 :: yes

Assay result, entry C=C1CC(c2ccc(OCCCN3C(=O)c4ccccc4C3=O)c(OC)c2)OC1=O (centres undefined) — outcome?
yes

Values were extracted from PubChem BioAssay (NCI).
